Assayed system: CD45 (Homo sapiens)
Construct: incubating the cytosolic portion of CD45 with the compounds and p-nitrophenyl phosphate (pNPP); purchased BIOMOL (Plymouth Meeting, Pa.)
Sequence (P08575 599-1306 limits assumed): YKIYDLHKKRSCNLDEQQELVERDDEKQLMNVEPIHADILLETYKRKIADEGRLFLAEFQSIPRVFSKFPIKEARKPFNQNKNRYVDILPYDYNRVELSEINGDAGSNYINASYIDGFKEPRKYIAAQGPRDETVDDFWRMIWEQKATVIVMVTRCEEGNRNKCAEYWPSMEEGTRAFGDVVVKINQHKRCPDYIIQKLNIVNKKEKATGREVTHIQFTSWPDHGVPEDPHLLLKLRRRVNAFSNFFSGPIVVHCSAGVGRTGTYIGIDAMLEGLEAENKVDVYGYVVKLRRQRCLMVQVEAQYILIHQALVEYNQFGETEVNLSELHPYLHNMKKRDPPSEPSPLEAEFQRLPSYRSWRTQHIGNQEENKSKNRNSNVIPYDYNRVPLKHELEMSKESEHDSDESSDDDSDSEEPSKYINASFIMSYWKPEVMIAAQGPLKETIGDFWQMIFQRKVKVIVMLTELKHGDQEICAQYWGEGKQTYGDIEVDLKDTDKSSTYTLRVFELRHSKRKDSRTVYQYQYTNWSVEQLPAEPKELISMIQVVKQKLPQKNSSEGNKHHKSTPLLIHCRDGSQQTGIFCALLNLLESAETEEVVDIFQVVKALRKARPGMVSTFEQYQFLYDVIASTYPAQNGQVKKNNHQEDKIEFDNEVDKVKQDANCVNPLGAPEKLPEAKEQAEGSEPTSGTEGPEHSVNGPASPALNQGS
Assay summary: Phosphatase assay using lck 10-mer as substrate
Type: biochemical
Stated conditions: CD45 phosphatase, lck carboxy-terminal peptide TEGQpYQPQP substrate, pH 7.2; read-out: Ick IC50
Where a SMILES comes first, the peptide text is derived from it. The star is where a group is joined. X1 = O=C1C(=O)c2cc(N*)ccc2-c2ccccc21
Recorded metric: IC50 (µM)

# example entries with known answers
O=C(O)CNC(=O)c1ccc2c(c1)-c1ccccc1C(=O)C2=O	3.4
O=C1C(=O)c2cc(NC(=O)c3ccccc3[N+](=O)[O-])ccc2-c2ccccc21	12

I: O=C(O)c1ccc2c(c1)C(=O)C(=O)c1ccccc1-2
II: CC(=O)N[C@@H](C)C(=O)N[C@H](C(=O)N[C@@H](CCC(=O)O)C(=O)NCC(=O)N[C@@H](CCC(N)=O)C(=O)N[C@@H](CC(=O)Nc1ccc2c(c1)C(=O)C(=O)c1ccccc1-2)C(=O)O)[C@@H](C)O [Example 60] (Ac-ATEGQD(X1)-OH)
Inquiry: Task for the reader: decide whether I or II has the larger IC50. Output the label that corresponds to your choice.
Reply text: II

I: Nc1cccc2c1-c1ccccc1C(=O)C2=O
II: O=C1C(=O)c2ccc(NC(=O)c3ccccc3C(F)(F)F)cc2-c2ccccc21
III: O=C1C(=O)c2cc(NC(=O)c3ccccc3C(F)(F)F)ccc2-c2ccccc21
Inquiry: Order the records, beginning with the lowest IC50 and ending with the highest. State the ranking by listing the labels in the requested order.
Reply text: I, II, III

====

Assayed system: CD45 (Homo sapiens)
Construct: incubating the cytosolic portion of CD45 with the compounds and p-nitrophenyl phosphate (pNPP); purchased BIOMOL (Plymouth Meeting, Pa.)
Assay summary: Phosphatase assay using pNPP as substrate
Type: biochemical
Stated conditions: pH 7; read-out: pNPP IC50
Where a SMILES comes first, the peptide text is derived from it. The star is where a group is joined. Phenanthrenequinone2carbonyl = O=C1C(=O)c2cc(C(=O)*)ccc2-c2ccccc21; 3Phenanthroyl(9,10-dioxo) = O=C1C(=O)c2ccc(C(=O)*)cc2-c2ccccc21
Recorded metric: pIC50
Please note pIC50 is a logarithmic value: minus log10 of concentration in mol/L. Answer with that number alone.

Take a look at these entries with their results.
NC(=O)CC[C@H](NC(=O)[C@@H]1CCCN1C(=O)[C@H](CCC(=O)O)NC(=O)CNC(=O)c1ccc2c(c1)-c1ccccc1C(=O)C2=O)C(=O)N1CCC[C@H]1C(=O)O [Example 27] ({3Phenanthroyl(9,10-dioxo)}-GEPQP-OH)	6.15
N=C(N)NCCC[C@H](NC(=O)c1ccc2c(c1)C(=O)C(=O)c1ccccc1-2)C(=O)NCC(=O)N1CCC[C@H]1C(=O)N[C@@H](CCCNC(=N)N)C(=O)NCC(=O)O [Example 51] (Phenanthrenequinone2carbonyl-RGPRG-OH)	5.96
NC(=O)CC[C@H](NC(=O)c1ccc2c(c1)-c1ccccc1C(=O)C2=O)C(=O)N[C@@H](CCC(N)=O)C(=O)NCC(=O)N[C@@H](CCC(N)=O)C(=O)N1CCC[C@H]1C(=O)O [Example 30] ({3Phenanthroyl(9,10-dioxo)}-QQGQP-OH)	6.05

Next up:
Inquiry: Kindly indicate its recorded pIC50. Item: NC(=O)CC[C@H](NC(=O)CNC(=O)c1ccc2c(c1)-c1ccccc1C(=O)C2=O)C(=O)NCC(=O)N[C@@H](CCC(=O)O)C(=O)N1CCC[C@H]1C(=O)O [Example 35] ({3Phenanthroyl(9,10-dioxo)}-GQGEP-OH)
Reply text: 6.05

====

Listed next: entries and their corresponding pIC50.
Assayed system: CD45 (Homo sapiens)
Construct: incubating the cytosolic portion of CD45 with the compounds and p-nitrophenyl phosphate (pNPP); purchased BIOMOL (Plymouth Meeting, Pa.)
Assay summary: Phosphatase assay using lck 10-mer as substrate
Assay type: biochemical
Where a SMILES comes first, the peptide text is derived from it. The star is where a group is joined. Phenanthrenequinone2carbonyl = O=C1C(=O)c2cc(C(=O)*)ccc2-c2ccccc21
pIC50 here: minus log base 10 of the concentration, concentration in moles per litre.

Previously resolved entries follow.
N=C(N)NCCC[C@H](NC(=O)c1ccc2c(c1)C(=O)C(=O)c1ccccc1-2)C(=O)NCC(=O)N1CCC[C@H]1C(=O)N[C@@H](CCCNC(=N)N)C(=O)NCC(=O)O [Example 51] (Phenanthrenequinone2carbonyl-RGPRG-OH)	5.32
N=C(N)NCCC[C@H](NC(=O)c1ccc2c(c1)C(=O)C(=O)c1ccccc1-2)C(=O)N[C@@H](CCC(=O)O)C(=O)N1CCC[C@H]1C(=O)N[C@@H](CCC(=O)O)C(=O)NCC(=O)O [Example 45] (Phenanthrenequinone2carbonyl-REPEG-OH)	5.41
N=C(N)NCCC[C@H](NC(=O)CNC(=O)c1ccc2c(c1)C(=O)C(=O)c1ccccc1-2)C(=O)N1CCC[C@H]1C(=O)N[C@@H](CCC(=O)O)C(=O)NCC(=O)O [Example 46] (Phenanthrenequinone2carbonyl-GRPEG-OH)	5.42

// switching to the query compound
Inquiry: Provide pIC50 value for the following compound: N=C(N)NCCC[C@H](NC(=O)c1ccc2c(c1)C(=O)C(=O)c1ccccc1-2)C(=O)N[C@@H](CCCNC(=N)N)C(=O)N1CCC[C@H]1C(=O)N[C@@H](CCC(=O)O)C(=O)NCC(=O)O [Example 48] (Phenanthrenequinone2carbonyl-RRPEG-OH)
Reply text: 5.24

====

// values below are reported CC50
Assay summary: Cytotoxicity assay (Calcein-AM uptake)
Stated conditions: human, PHA-expanded T-cell lymphoblasts from PBMC
Give a bare numeral; the unit µM is implied.

O=C1C(=O)c2cc(Br)ccc2-c2ccccc21	5
COc1ccccc1-c1ccc2c(c1)C(=O)C(=O)c1ccccc1-2	8.9
O=C1C(=O)c2cc(NC(=O)C(Cl)(Cl)Cl)ccc2-c2ccccc21	9
COC(=O)CCC(=O)Nc1ccc2c(c1)C(=O)C(=O)c1cccc([N+](=O)[O-])c1-2	13
Nc1ccc2c(c1)C(=O)C(=O)c1cccc(N)c1-2	4

Inquiry: Let me know recorded CC50 for COC(=O)CCCCCCC(=O)Nc1ccc2c(c1)C(=O)C(=O)c1cccc([N+](=O)[O-])c1-2 , thanks.
Reply text: 14

Inquiry: Please report CC50 for the following compound: O=C(Nc1ccc2c(c1)-c1ccccc1C(=O)C2=O)c1ccccc1F
Reply text: 15

Inquiry: Fill in reported CC50 for this entry: COC(=O)CCC(=O)Nc1ccc2c(c1)C(=O)C(=O)c1cc(NC(=O)CCC(=O)OC)ccc1-2
Reply text: 7

====

Assay summary: Cytotoxicity assay (Calcein-AM uptake)
Stated conditions: human, PHA-expanded T-cell lymphoblasts from PBMC
Recorded metric: CC50 (µM)
// return numeric value only (unit: µM, not printed)

Example molecules with recorded CC50:
Nc1ccc2c(c1)C(=O)C(=O)c1ccccc1-2 [Example 87, 2-Amino-phenanthrene-9,10-dione]	5
Nc1cccc2c1-c1ccccc1C(=O)C2=O [Example 89, 4-Amino-phenanthrene-9,10-dione]	9
COC(=O)CCC(=O)Nc1ccc2c(c1)C(=O)C(=O)c1cccc(NC(=O)CCC(=O)OC)c1-2 [Example 73]	11
CC(C)(C)C(=O)Nc1ccc2c(c1)-c1ccccc1C(=O)C2=O [Example 10]	10
COC(=O)CCC(=O)Nc1ccc2c(c1)C(=O)C(=O)c1ccccc1-2 [Example 80]	6.5
O=C1C(=O)c2cc(NC(=O)c3ccccc3[N+](=O)[O-])ccc2-c2ccccc21 [Example 5]	8.2

Here is the next item to consider.
Inquiry: Please report the measured CC50 for O=C(COCc1ccccc1)Nc1ccc2c(c1)C(=O)C(=O)c1ccccc1-2 [Example 2]
Reply text: 14

====

Assayed system: CD45 (Homo sapiens)
Construct: incubating the cytosolic portion of CD45 with the compounds and p-nitrophenyl phosphate (pNPP); purchased BIOMOL (Plymouth Meeting, Pa.)
Assay summary: Phosphatase assay using lck 10-mer as substrate
Assay type: biochemical
Stated conditions: CD45 phosphatase, lck carboxy-terminal peptide TEGQpYQPQP substrate, pH 7.2; read-out: Ick IC50
Source text: Phosphatase assay using lck 10-mer as substrate: […]
Recorded metric: IC50 (µM)

Consider the reported IC50 for these molecules:
COC(=O)CCCCCCC(=O)Nc1cccc2c1-c1ccccc1C(=O)C2=O [Example 68]	3.2
Nc1ccc2c(c1)-c1ccccc1C(=O)C2=O [Example 88, 3-Amino-phenanthrene-9,10-dione]	10.5
COC(=O)CCCCCCC(=O)Nc1ccc2c(c1)C(=O)C(=O)c1cccc(NC(=O)CCCCCCC(=O)OC)c1-2 [Example 75]	10
CCOc1ccccc1-c1ccc2c(c1)C(=O)C(=O)c1ccccc1-2 [Example 22]	9.7
O=C1C(=O)c2cc(Br)ccc2-c2ccccc21 [Example 96, 2-Bromo-phenanthrene-9,10-dione]	3.1
O=C1C(=O)c2cc([N+](=O)[O-])ccc2-c2ccc([N+](=O)[O-])cc21 [Example 94, 2,7-Dinitro-phenanthrene-9,10-dione]	5

P: COC(=O)CCCCCCC(=O)Nc1ccc2c(c1)C(=O)C(=O)c1ccccc1-2 [Example 71]
Q: O=C1C(=O)c2cc(NC(=O)C(Cl)(Cl)Cl)ccc2-c2ccccc21 [Example 7]
Inquiry: Please compare: P and Q . Report which one has the smaller IC50 value. Respond with the label that goes with your answer.
Reply text: P
(P: 3.7 µM, Q: 13 µM)

I: COC(=O)CCCC(=O)Nc1ccc2c(c1)C(=O)C(=O)c1cccc([N+](=O)[O-])c1-2 [Example 65]
II: COC(=O)CCC(=O)Nc1ccc2c(c1)C(=O)C(=O)c1ccccc1-2 [Example 80]
Inquiry: Which record shows the lower IC50: the first, I , or the second, II ? Your choice should be expressed through its label.
Reply text: I
(I: 3.1 µM, II: 4.9 µM)

A: O=C(O)c1ccc2c(c1)-c1ccccc1C(=O)C2=O [Example 98]
B: O=C1C(=O)c2ccc([N+](=O)[O-])cc2-c2ccccc21 [Example 99, 3-Nitro-phenanthrene-9,10-dione]
Inquiry: Lower value of IC50 belongs to which: A or B ? Bench note: the answer is the label of the chosen record.
Reply text: A
(A: 2.4 µM, B: 4.9 µM)
